Taken from PubChem BioAssay (NCI).

# Assay Overview: NCI Yeast Anticancer Drug Screen. Data for the cln2 rad14 strain (AID 165);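 further: 0% = growth equal to vehicle treated cultures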
# Test Parameters: S. cerevisiae cln2 rad14 strain, at 50.0 µM, active compounds read high
The panel holds about 79,000 compounds, 15% with a hit somewhere; the sample as a whole holds those more often.
Property Measured: growth inhibition (%)
Numbers only here, please. The scale is %.

Example results:
* COc1ccc(NC2=C(C)C(=O)C3=C(C2=O)[C@H](COC(N)=O)[C@]2(OC)[C@@H]4N[C@@H]4CN32)cc1 | 71.6
* CC(N)C(=O)c1ccccc1 (centres undefined) | -38.2
* C[N+]12C(=O)CC3OCC=C4C[N+]5(C)CCC6(c7ccccc71)C2C3C4CC65O (centres undefined) | 11.2
* C/C(=N\NS(=O)(=O)c1ccc(C)cc1)C(CN(C)C)C(c1ccccc1)c1c(O)c2ccccc2oc1=O (centres undefined) | 52.9
* CCOC(=O)CN(Cc1ccccc1)Cc1c(C(=O)c2ccccc2)c2ccccc2n1C(=O)c1ccccc1 | -75.2
* Nc1cccc2ccccc12 | -28.9

Request: What value of growth inhibition has been recorded for this entry: O=C(c1ccccc1)C1CN(C2CCCC2)C1c1ccccc1 (centres undefined)
Response: -27.3

Request: What value of growth inhibition has been recorded for this entry: CCOC(=N)N1[C@H](C)[C@@H]1C
Response: -19

Request: What value of growth inhibition has been recorded for this entry: O=c1c2cc(Br)cc(Br)c2nc(CCCl)n1-c1ccc(O)c([N+](=O)[O-])c1
Response: 16.3

Request: What value of growth inhibition has been recorded for this entry: O=C1C(F)=C(F)C(=O)C(F)=C1F
Response: -2.85

Request: What value of growth inhibition has been recorded for this entry: CS(=O)(=O)c1ccc([As](=O)(O)O)cc1
Response: -34.1

Request: What value of growth inhibition has been recorded for this entry: Brc1ccc(Oc2ccc(Br)cc2Br)c(Br)c1
Response: 2

Request: What value of growth inhibition has been recorded for this entry: CS(=O)(=O)NC(=NCCOS(C)(=O)=O)N[N+](=O)[O-]
Response: -6.85

Request: What value of growth inhibition has been recorded for this entry: O=c1c(O)c(-c2ccccc2)oc2ccccc12.[Zr]
Response: 18.4

###

# Assay Overview: NCI Yeast Anticancer Drug Screen. Data for the mec2-1 strain (AID 157)
# Test Parameters: S. cerevisiae mec2-1 strain, at 50.0 µM
This is part of a sample that, as a whole, favours compounds with a hit. Of some 79,000 tested, about 15% had one in any assay. Active and inactive are the calls of the source. Cut-off read from the data, not from the text of the source: active = growth inhibition above about 70%; inactive = the rest.
The categories you may choose from are active, inactive

Please review the following examples before continuing.
• CC1(C)OP(=O)(c2ccccc2)C=C1Br (centres undefined) = inactive
• CCN(CC)CCO = inactive
• OC[C@@H](O)[C@@H](O)CO = inactive
• O=c1oc2ccccc2c(O)c1C(c1ccc2c(c1)OCO2)c1c(O)c2ccccc2oc1=O = inactive
• O=C(O)C(CP(=O)(O)O)=C(Cl)Cl = inactive

Request: Just curious, what result did N.N.NC(CS)C(=O)[O-].NC(CS)C(=O)[O-].[Pt+4] (centres undefined) get here?
Response: inactive

Request: Just curious, what result did O=C1NC(=S)NC(=O)C1=Cc1cc2c(cc1[N+](=O)[O-])OCO2 get here?
Response: inactive

###

# Assay Overview: NCI Yeast Anticancer Drug Screen. Data for the bub3 strain (AID 167)
# Test Parameters: S. cerevisiae bub3 mutant strain, at 50.0 µM, active compounds read high
# Experimental: Growth inhibition of yeast strains with defined genetic alterations is measured as a screen for potential anti-cancer activity. Selected strains with alterations in DNA damage repair or cell cycle control were exposed to compounds and growth inhibition was measured relative to vehicle treated controls. The strain used in this assay is bub3
This is part of a sample that, as a whole, favours compounds with a hit. Of some 79,000 tested, about 15% had one in any assay.
Property Measured: growth inhibition (%)
Numbers only here, please. The scale is %.

Example results:
• O=c1ccc(=O)[nH][nH]1.[Mn] = 7.2
• CCOP(=O)(OCC)O/N=C(/CC)c1ccccc1 = -1.55
• CC(=O)OC1CCC2(C)C(CCC3C2CCC2(C)C3CC(CC(=O)O)C2OC(C)=O)C1 (stereo not drawn) = 3.3
• CCCCCCCNC(c1ccccc1)C(O)c1ccccc1 (stereo not drawn) = 1.55

Request: What value of growth inhibition has been recorded for this entry: CN(C)c1ccc(C=O)cc1.[C-]#[O+].[C-]#[O+].[C-]#[O+].[Cr]
Response: -18.4

Request: What value of growth inhibition has been recorded for this entry: O=NN1CCCCCC1C(=O)O (stereo not drawn)
Response: 2.7

Request: What value of growth inhibition has been recorded for this entry: COc1ccc(CC(N)c2nn[nH]n2)cc1 (stereo not drawn)
Response: 8.15

###

# Assay Overview: NCI Yeast Anticancer Drug Screen. Data for the bub3 strain (AID 167)
# Test Parameters: S. cerevisiae bub3 mutant strain, at 50.0 µM
The panel holds about 79,000 compounds, 15% with a hit somewhere; the sample as a whole holds those more often. The source made the active and inactive calls. Rule as the data show it: active = growth inhibition above about 70%; inactive = the rest.
The categories you may choose from are 1 = active, 0 = inactive

- CCCCOP(=O)(O)OCCCC.[V]: 0
- CCc1cc[c]([Sb](=[O])([OH])[OH])cc1: 0
- Cc1cc(S(=O)(=O)F)ccc1NC(=O)NCc1ccc(N2C(N)=NC(N)=NC2(C)C)cc1: 0
- CC(C)(C)C1COP(=O)(C(C)(C)C)OC1 (stereo unspecified): 0
- Cn1nnc(-c2nnn(C)n2)n1: 0
- CCC1(C(C)=O)CN2CCc3cc(OC)c(OC)cc3C2N2CCc3ccc(OC)c(OC)c3C21 (stereo unspecified): 1
- [C-]#[O+].[C-]#[O+].[C-]#[O+].[C-]#[O+].[C-]#[O+].[C-]#[O+].[Fe].[Fe].c1ccc([P-]c2ccccc2[P-]c2ccccc2)cc1 (stereo unspecified): 0
- CN(C)C(=O)N(CCCl)N=O: 0

Turning now to a further record.
Request: Just curious, what result did O=[N+]([O-])c1cc(Br)c(O)c(Br)c1 get here?
Response: 0

###

# Assay Overview: NCI Yeast Anticancer Drug Screen. Data for the mlh1 rad18 strain (AID 175)
# Test Parameters: S. cerevisiae mlh1 rad18 strain growth inhibition; at 50.0 µM
This is part of a sample that, as a whole, favours compounds with a hit. Of some 79,000 tested, about 15% had one in any assay. Active and inactive are the calls of the source. Rule as the data show it: active = growth inhibition above about 70%; inactive = the rest.
The categories you may choose from are active, inactive

• COc1cc(C2c3cc4c(cc3OC(C)(O)C2C)OCO4)cc(OC)c1OC (centres undefined) = inactive
• CC1CCCCN1CCCN=C(N)N[N+](=O)[O-] (centres undefined) = inactive
• O=C(O)CCCC(=O)CCCC(=O)O.[Pb] = inactive
• NC(=O)c1cc(N(CCBr)CCBr)c([N+](=O)[O-])cc1[N+](=O)[O-] = inactive
• CCOC(=O)COc1cc(Cl)c(S(=O)(=O)F)cc1Cl = active
• CCCCCCCCCCC(O)[C@H]1CCC(C2CC[C@H]([C@H](O)CCCCCCCCCCC(O)CC3=CC(C)OC3=O)O2)O1 (some centres undefined) = inactive

Request: Just curious, what result did O=C(C(F)(F)Cl)C(F)(F)Cl get here?
Response: inactive

Request: Just curious, what result did C=CCC1(C(=C)C)C(=O)NC(=O)NC1=O get here?
Response: inactive

Request: Just curious, what result did N#C[S-].N#C[S-].[Ni+2].c1ccc([PH+](c2ccccc2)c2ccccc2)cc1.c1ccc([PH+](c2ccccc2)c2ccccc2)cc1 get here?
Response: inactive

Request: Just curious, what result did CC1CN1C1c2ccccc2CC1O (centres undefined) get here?
Response: inactive

Request: Just curious, what result did CCOP(=O)(OCC)SC=C(Cl)Cl get here?
Response: inactive

Request: Just curious, what result did Cc1ccc(O)cc1Cl get here?
Response: inactive

Request: Just curious, what result did c1ccc2c(c1)SCCC2NC1=NCCO1 (centres undefined) get here?
Response: inactive

Request: Just curious, what result did CC[N+](CC)(CC)CC.[C-]#[O+].[C-]#[O+].[C-]#[O+].[Cr+4].[c-]1[c-][c-][cH-][c-]1 get here?
Response: inactive

Request: Just curious, what result did CCC(=O)[O][Sn]([CH3])([CH3])[O][Sn]([CH3])([CH3])[O]C(=O)CC get here?
Response: inactive

Request: Just curious, what result did CCC1(C/C=C/Cl)C(=O)NC(=O)NC1=O get here?
Response: inactive

Request: Just curious, what result did CCOP(=O)(NCc1ccccc1)c1ccc(N)cc1 (centres undefined) get here?
Response: inactive

Request: Just curious, what result did Cc1cccc(NC(N)=S)c1 get here?
Response: inactive

Request: Just curious, what result did NC(c1ccccc1)C(O)c1ccc(O)cc1 (centres undefined) get here?
Response: inactive

Request: Just curious, what result did CC(=O)Nc1nc2c(ncn2C2OCC(OC(C)=O)C(OC(C)=O)C2OC(C)=O)c(=O)[nH]1 (centres undefined) (tested in a mixture with another compound) get here?
Response: inactive

Request: Just curious, what result did CCCCCCCCCCCC(=O)[O][Pb]([CH2]CCC)([CH2]CCC)[O]C(=O)CCCCCCCCCCC get here?
Response: inactive

Request: Just curious, what result did NC1CC=C(COC(=O)C(O)(c2ccccc2)C2CC2)CC1 (centres undefined) get here?
Response: inactive

Request: Just curious, what result did O=C(OCC1CCCN2CCCCC12)c1ccncc1 (centres undefined) get here?
Response: inactive

Request: Just curious, what result did CCCCCCCC(=O)[O][Pb]([CH2]C)([CH2]C)[CH2]C get here?
Response: inactive
